Data origin, for the record: the DeepSol protein solubility set

# assay name: soluble on expression in E. coli; label from the status in PepcDB or PDB records
endpoint: soluble on expression in E. coli

construct_sequence=RVMDMKAPIKVYMTKKLLGVKPSTSVQEASRLMMEFDVGSLVVINDDGNVVGFFTKSDIIRRVIVPGLPYDIPVERIMTRNLITANVNTPLGEVLRKMAEHRIKHILIEEEGKIVGIFTLSDLLEASRRRLETAISAE endpoint="soluble on expression in E. coli" data_value=soluble
construct_sequence=MGSDKIHHHHHHMTNQLLSEQWFEHQAKVTEAIGRPGFAASLFAALGVIRPIQATTVYLYPHDGMPCALFEQDDKAPWQPEGNVSRYLSGFYLLDPFYGACVEQVESGCYGLFEVAPDHFEVSEYYQSFYRHSHLEDELNYILQVAPGQSLAVSLAFTDKLDGQSRTRFGLITPWVLAVLGKHFAGLDSRAGRFENILEQRIHAALNNFGSSLLTERECRIAQLILRGHSTKSLAERLGVSEDTIKSHRKNVYAKLDIGTQSELFSLFIDALANAQGVLGKDPLESYMGKLR endpoint="soluble on expression in E. coli" data_value="not soluble"
construct_sequence=MAHAPARCPSARGSGDGEMGKPRNVALITGITGQDGSYLAEFLLEKGYEVHGIVRRSSSFNTGRIEHLYKNPQAHIEGNMKLHYGDLTDSTCLVKIINEVKPTEIYNLGAQSHVKISFDLAEYTADVDGVGTLRLLDAVKTCGLINSVKFYQASTSELYGKVQEIPQKETTPFYPRSPYGAAKLYAYWIVVNFREAYNLFAVNGILFNHESPRRGANFVTRKISRSVAKIYLGQLECFSLGNLDAKRDWGHAKDYVEAMWLMLQNDEPEDFVIATGEVHSVREFVEKSFLHIGKTIVWEGKNENEVGRCKETGKVHVTVDLKYYRPTEVDFLQGDCTKAKQKLNWKPRVAFDELVREMVHADVELMRTNPNA endpoint="soluble on expression in E. coli" data_value="not soluble"
construct_sequence=MIIKKIIDLTMPITAQTPVYPGDPKPKIEPAATFAQDGYHVSRLVLGSHSGTHVDAPFHFCEHGWRLDDVPLTYFLGRGVVIDATGKAEGEAVTMADAAPYIPKLSPGTIVLFHTGWSQYAGTKRYFRHPYVAPDVIEAMLERGVRTFLIDALNIDPPDGSLFHAHELILGANGVIGENFVNFERIDFDDPYIIALPLSLPGCERFARSGGGGAVGVTKKGDTAPHML endpoint="soluble on expression in E. coli" data_value="not soluble"
construct_sequence=MSLRPTMTDIAKLTGVSQSTVSLVLNNATGAKFSETTRNKVLKAAHDLGYRLSLREPVSASADERNLIVYLADEISTSPHPVVNIDGARDAAYASGKMLAVYSTHGNADIEKQVLDTTLSNPHVFGVIYATVYTRKVTPPAALSQVPTVLLNCYTGEGGFSSVVPAEVAGGHLATDYLLQSGHRRIGYINGEPWQDASKDRLKGYRTALATADLPFAQEMVRDGDWSSGLGFELTLSLMRESNPPTAIFCANDLTAIGAIEALKQLGLRVPEDVSVLGYDDQEIARHTHPPLSTVVLPNYELGRWAVETLLQEEHNRAAGAPVRHRMVKLDGPLVERGSVRVITEAKEGHHHHHH endpoint="soluble on expression in E. coli" data_value=soluble
construct_sequence=KLKSVEKKLSESESRLELALEAANMGTWSWNIKRNEIFWSEQVLYIFGIKPEEFKGDFESYLNLIPSNERVQVEEYITNVLAKLQKEFFFDHSIQTPSGVKKRVYCKGKLYADHAGMPDSMTGVVLDVT endpoint="soluble on expression in E. coli" data_value="not soluble"
construct_sequence=MQERHTEQDYRALLIADTPIIDVRAPIEFEQGAMPAAINLPLMDNDERASVGTCYKQQGSDAALALGHKLVAGEIRQQRMYAWRAACLQNPQGILCCARGGQRSHIVQRWLHEAGIDYPLVEGGYKALRQTAIQATIELAQKPIVLIGGCTGSGKTLLVQQQPNGVDLEGLARHRGSAFGRTLQPQLSQASFENLLAAEMLKTDARQDLRLWVLEDESRMIGSNHLPECLRERMTQAAIAVVEDPFEIRLERLNEEYFLRMHHDFTHAYGDEQGWQEYCEYLHHGLSAIKRRLGLQRYNELAAQLDTALTTQLTTGSTDGHLAWLVPLLKEYYDPMYRYQLEKKAEKVVFRGEWAEVAVWVKAQLEHHHHHH endpoint="soluble on expression in E. coli" data_value="not soluble"
construct_sequence=MGFNNLVSLAALIEKVFPIRYTPAGIPVLDIILKHESWQEENGQQCLVQLEIPARILGRQAEEWQYRQGVYVHVEGFLAQKSRRSLMPMLRIQNIQEYKG endpoint="soluble on expression in E. coli" data_value="not soluble"
construct_sequence=MGRLSEVFEVRERYVPQIGRPSYLLVSLPDAGLVGSISGEFLINYLNLREYGEIYSNKHLPPISHVVNGVAKSPIRLYHYDNFLLLHSWIAIPANSINHLANLVVSYAEKYGIQTIISITGVPVPNRLDLEKPTPYWVASSEDFAKELDSLNLMKKFVEGYVSGPYAPILFQSAKKLIRNLLIVVESFLDLPDPEAAAVALDILSKMLGFKVDTSSLLKEAEEIRERIKGLMQQTRQELPNYSGLRPSTYA endpoint="soluble on expression in E. coli" data_value="not soluble"
construct_sequence=ARKCSLTGKWTNNLGSIMTIRAVNSRGEFTGTYLTAVADNPGNITLSPLLGIQHKRASQPTFGFTVHWNFSESTTVFTGQCFIDRNGKEVLKTMWLLRSSVNDISYDWIATRVGYNNFTRLSTVEE endpoint="soluble on expression in E. coli" data_value=soluble
construct_sequence=GMDDLSEFVDQVPLLDHHCHFLIDGKVPNRDDRLAQVSTEADKDYPLADTKNRLAYHGFLALAKEFALDANNPLAAMNDPGYATYNHRIFGHFHFKELLIDTGFVPDDPILDLDQTAELVGIPVKAIYRLETHAEDFMLEHDNFAAWWQAFSNDVKQAKAHGFVGFKSIAAYRVGLHLEPVNVIEAAAGFDTWKHSGEKRLTSKPLIDYMLYHVAPFIIAQDMPLQFHVGYGDADTDMYLGNPLLMRDYLKAFTKKGLKVVLLHCYPYHREAGYLASVFPNLYFDISLLDNLGPSGASRVFNEAVELAPYTRILFASDASTYPEMYGLAARQFKQALVAHFNQLPFVDLAQKKAWINAICWQTSAKLYHQERELRV endpoint="soluble on expression in E. coli" data_value=soluble
construct_sequence=MSLRVFVCGCVHGSWDIVVDEVNKLVENGTKLDLIIVAGDLEAFITESDLLSYKRPNGTQGFGSFHKIANGEKHLPCKMLVIGGNNESTDIIFQLPFGGWITPDVYFAGRASQIYFGDLLITCTSGVYNVKNYWKKVYEHFPVRKKECYSVNHTRAFSNFQVYGLTQLNIFVTHDWPSGIPKMFRDIIPKKSLVDSDDSNDFGMQDYRKILEKKQPKYWFAAHHHIKFECEPNPGTKFIAVPRVIQDNWYSLQTFDEKPGDFMISGEWINILKKTEEYMKDPSVLKDIDWDEEWTKINSLPSADLPIKVPVMEYNNDYKVQTAKFCETYGIYNPNEGHHHHHH endpoint="soluble on expression in E. coli" data_value=soluble
